Provenance of the data: patent US11878965B2

For each of the compounds below, state its IC50.
subject.of.test: human PAD4 (Homo sapiens (Human))
Sequence (Q9UM07 2-663): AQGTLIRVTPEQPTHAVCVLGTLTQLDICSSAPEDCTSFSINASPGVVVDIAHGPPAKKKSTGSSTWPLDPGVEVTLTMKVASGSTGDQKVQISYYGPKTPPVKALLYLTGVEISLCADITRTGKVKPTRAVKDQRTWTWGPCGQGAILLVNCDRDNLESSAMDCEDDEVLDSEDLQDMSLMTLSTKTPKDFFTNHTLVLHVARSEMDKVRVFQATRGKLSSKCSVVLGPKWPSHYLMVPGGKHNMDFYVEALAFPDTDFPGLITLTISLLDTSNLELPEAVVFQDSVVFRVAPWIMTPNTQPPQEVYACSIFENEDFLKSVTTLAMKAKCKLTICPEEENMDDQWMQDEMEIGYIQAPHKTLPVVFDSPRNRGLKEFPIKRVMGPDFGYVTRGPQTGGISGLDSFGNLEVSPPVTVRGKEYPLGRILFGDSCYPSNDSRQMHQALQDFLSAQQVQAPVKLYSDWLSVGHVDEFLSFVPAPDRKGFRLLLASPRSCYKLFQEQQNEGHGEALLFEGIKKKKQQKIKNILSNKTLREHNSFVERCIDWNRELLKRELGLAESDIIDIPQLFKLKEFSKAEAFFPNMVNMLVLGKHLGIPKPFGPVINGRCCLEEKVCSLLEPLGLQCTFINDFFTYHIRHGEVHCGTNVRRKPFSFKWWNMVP
experiment.summary: In Vitro PAD4 BAEE Biochemical Assay
test.parameters: human PAD4, BAEE substrate; 5 nM PAD4, 2 mM calcium chloride, 3 mM BAEE; geometric mean of multiple experiments
I only need the number, in nM, no unit after it.

## Task What does the data say about its IC50? Entry: COc1cc(C(=O)N2C[C@H](N)CC[C@@H]2C)cc2nc(-c3cc4ccc(-c5cccc6c5CNC6=O)nc4n3CC3CC3)n(C)c12
## Result 584

## Task Fill in: IC50 of C[C@@H](NC(=O)C(C)(C)C)c1ccc2cc(-c3nc4cc(C(=O)N[C@H]5CNCC[C@@H]5F)c(F)cc4n3C)n(CC3CC3)c2n1 is ___
## Result 158

## Task Param item = COc1cc(C(=O)N2[C@H]3CC[C@@H]2[C@H](N)C3)cc2nc(-c3cc4ccc([C@@H](C)NC(=O)c5cnn(C)c5)cc4n3CC3CC3)n(C)c12 ; retrieve measured IC50.
## Result 13

## Task GET /values?readout=IC50&item= COc1cc(C(=O)N2CCC[C@@H](N)C2)cc2nc(-c3cc4ccc(N5[C@@H](C)CCCS5(=O)=O)nc4n3CC3CC3)n(C)c12
## Result 29.6

## Task # query: IC50 of entry COc1cc(C(=O)N2CCC[C@@H](N)C2)cc2nc(-c3cc4ccc(NS(C)(=O)=O)cc4n3CC3CC3)n(C)c12
## Result 1580

## Task Endpoint output: IC50 of COc1cc(C(=O)N2[C@H]3CC[C@@H]2[C@H](N)C3)cc2nc(-c3cc4ccc([C@@H](C)NC(=O)c5ccc(F)cc5)nc4n3CC3CC3)n(C)c12 . Value?
## Result 138
